System: Tyrosine-protein kinase ABL1 (Homo sapiens), P00519 [H396P]
reported.conditions: at 1 µM
parameter: inhibition (%)
One number for each entry, in %.

CC(C)(CO)CNC(=O)c1ccc2c(c1)/C(=N/Nc1ccc(S(N)(=O)=O)cc1)C(=O)N2: 9.98

For each of the compounds below, state inhibition.
1. CCn1c(-c2nonc2N)nc2cnc(Oc3cccc(NC(=O)c4ccc(N(C)C)cc4)c3)cc21
2. N#Cc1c(NC(=O)CN2CCOCC2)sc2c1CCCC2

1. 1.9
2. 5.61

Parameters: items (list). Returns: inhibition for each item.
1. COc1ccc2[nH]c3c4[nH]c5ccc(OC)cc5c4c4c(c3c2c1)C(=O)NC4=O
2. FC(F)(F)c1cccc(-c2nn3ncccc3c2-c2ccnc(Nc3ccc4c(c3)OCCO4)n2)c1
3. CCn1c(-c2nonc2N)nc2c(C#CC(C)(C)O)nc(OC[C@H](N)c3ccccc3)cc21
4. c1ccc(COc2ccc(Nc3ncnc4ccc(-c5ccco5)cc34)cc2)cc1
5. COc1cc2ncn(-c3cc(OCc4ccccc4C(F)(F)F)c(C(=O)N(C)C)s3)c2cc1OC
6. c1ccc(-c2nc3n(c2-c2ccc4c(c2)OCO4)CCC3)nc1
7. CCn1c(-c2nonc2N)nc2c(C#CC(C)(C)O)ncc(OC3CCNCC3)c21
8. COc1cc(/C=N/Nc2ncnc3[nH]ncc23)ccc1O

1. 45.3
2. 36.6
3. 2.25
4. 0.64
5. 16.3
6. 2.48
7. 2.1
8. 87.6

###

Would you mind telling me the reported inhibition of each entry?
system.name: Serine/threonine-protein kinase Sgk2 (Homo sapiens)
reported.conditions: at 1 µM
Description: GSK_PKIS: SGK2 mean inhibition at 1 uM [Nanosyn]
Numbers only, in %.

Answered cases to consult:
c1ccc(-c2nc3n(c2-c2ccc4c(c2)OCO4)CCC3)nc1: 2.94
CS(=O)(=O)CCNCc1coc(-c2ccc3ncnc(Nc4ccc(OCc5ccccc5)cc4)c3c2)c1: 1.93
Fc1cccc(COc2ccc(Nc3ncnc4sc(-c5ccco5)cc34)cc2Cl)c1: 0.68

Give inhibition for each listed item.
1. COC(=O)c1sc(-n2cnc3cc(OC)c(OC)cc32)cc1OCc1ccccc1C(F)(F)F
2. CCN1CCC(CC(=O)Nc2n[nH]c3nnc(-c4cccc(F)c4F)cc23)CC1
3. Fc1ccc(-c2nn3ccccc3c2-c2ccncc2)cc1
4. COc1cc(Nc2nccc(Nc3ccc4c(C)n[nH]c4c3)n2)cc(OC)c1OC

1.94
1.93
3.17
-0.14

Value sought for every listed compound: inhibition.
1. CN1CCC(n2cnc(-c3ccc(F)cc3)c2-c2ccnc(N)n2)CC1
2. CS(=O)(=O)CCNCc1ccc(-c2ccc3ncnc(Nc4ccc(OCc5ccccc5)c(C(F)(F)F)c4)c3c2)o1
3. COc1cccc(-n2ncc3c(N/N=C/c4ccc(F)cc4)ncnc32)c1

[7.47, 1.26, 0.76]

###

What inhibition was measured for each of the following?
system.name: Serine/threonine-protein kinase Sgk2 (Homo sapiens) (UniProt Q9HBY8)
Sequence (whole entry): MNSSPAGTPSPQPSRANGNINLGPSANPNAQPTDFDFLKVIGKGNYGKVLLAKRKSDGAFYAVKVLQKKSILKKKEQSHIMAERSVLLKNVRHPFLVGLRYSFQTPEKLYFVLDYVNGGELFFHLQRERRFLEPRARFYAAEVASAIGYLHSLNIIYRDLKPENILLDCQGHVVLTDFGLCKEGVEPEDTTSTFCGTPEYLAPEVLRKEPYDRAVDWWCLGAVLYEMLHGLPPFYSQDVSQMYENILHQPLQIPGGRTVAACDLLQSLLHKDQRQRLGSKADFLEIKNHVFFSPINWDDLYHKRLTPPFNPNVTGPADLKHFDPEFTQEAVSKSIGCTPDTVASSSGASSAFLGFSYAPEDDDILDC
reported.conditions: at 1 µM
Numbers only, in %.

Completed entries (count: 5):
CCc1nn2ncccc2c1-c1ccnc(NC2CC2)n1: -2.61
CC1=C(C(=O)Nc2cc(Cl)c3[nH]ncc3c2)C(c2ccc(C(F)(F)F)cc2)CC(=O)N1 (stereo not given): 12.5
CCn1cc(-c2ccnc3[nH]ccc23)c(-c2cccc(NC(=O)Nc3ccc(OCc4ccccc4)cc3)c2)n1: -1.47
CN(C)CCOc1ccc(-c2nc(-c3ccncc3)c(-c3ccc4c(c3)CC/C4=N\O)[nH]2)cc1: 5.4
FC(F)(F)c1cccc(-c2nn3ncccc3c2-c2ccnc(Nc3ccc4c(c3)OCCO4)n2)c1: 0.76

I would be grateful if you could provide inhibition for each of the following entries.
1. Fc1ccc(-c2nn3ncccc3c2-c2ccnc(Nc3ccc4c(c3)OCCO4)n2)cc1
2. Clc1ccc(-c2nn3ncccc3c2-c2ccnc(Nc3ccccc3)n2)cc1
3. Cc1ccc(O)cc1Nc1ccnc2cc(-c3ccccn3)ccc12
4. COc1ccc(-c2cc3c(N)ncnc3o2)cc1
5. COc1cccc(-c2c[nH]c3c(N/N=C/c4ccncc4)ncnc23)c1

0.65
0.53
0.49
1.43
18.2

###

system.name: Ephrin type-A receptor 4 (Homo sapiens);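 also: mean inhibition of EPHA4 from the GSK PKIS screening set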
reported.conditions: at 0.1 µM
parameter: inhibition

Please review the following examples before continuing.
COc1cccc(-c2c[nH]c3c(N/N=C/c4ccncc4)ncnc23)c1: 8.17%
COC(=O)Nc1nc2ccc(S(=O)(=O)c3ccc(NC(=O)Nc4cc(C(F)(F)F)ccc4F)cc3)cc2[nH]1: 4.8%
Fc1cccc(COc2ccc(Nc3ncnc4sc(-c5ccco5)cc34)cc2Cl)c1: 7.43%
COC(=O)Nc1nc2ccc(Oc3ccc(NC(=O)Nc4cccc(Cl)c4)cc3)cc2[nH]1: 22.3%
CC1=C(C(=O)Nc2cc(Cl)c3[nH]ncc3c2)C(c2ccc(C(F)(F)F)cc2)CC(=O)N1 (stereo unspecified): 8.02%

Dear colleague, could you please provide inhibition for the compounds listed below?
1. COc1ccc2c(-c3ccnc(Nc4cccc(OC(F)(F)F)c4)n3)cnn2n1
2. CNC(=O)c1cccc(C#Cc2cncnc2Nc2ccc(OCc3cccc(F)c3)c(Cl)c2)c1
3. CCN(CC)S(=O)(=O)c1ccc(OC)c(Nc2ncc(-c3ccccc3)o2)c1
4. Nc1nc(-c2cccc(Cl)c2)c(-c2ccc3ncccc3n2)s1
5. CCN1CCC(CC(=O)Nc2n[nH]c3nnc(-c4cccc(F)c4F)cc23)CC1
6. NS(=O)(=O)c1ccc(Nc2ncc(-c3ccccc3)o2)cc1

1: 11.3%; 2: 5.81%; 3: 9.54%; 4: 11%; 5: 5.3%; 6: 7.23%

###

system.name: Hepatocyte growth factor receptor (Homo sapiens);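 also: reported values are means of MET inhibition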
reported.conditions: at 0.1 µM
Please provide measured inhibition for the entries that follow.
Give bare numbers, in %.

// worked examples, inhibition included
CNC(=O)c1cncc(/C=C/c2ccccc2Cl)c1: 3.72
CC(C)COC(=O)c1ccc2c(c1)/C(=C/Nc1ccc(S(N)(=O)=O)cc1)C(=O)N2: -4.39
CCn1c(-c2nonc2N)nc2c(C#CC(C)(C)O)ncc(OC3CCNCC3)c21: 5.39

Please give inhibition for each item listed below.
1. NS(=O)(=O)c1ccc(Nc2ncc(-c3ccccc3)o2)cc1
2. Cc1cccc(Nc2ncc(-c3ccccc3)o2)c1
3. CCn1c(-c2nonc2N)nc2ccccc21

1. 1.7
2. 3.88
3. 5.36

###

Exercise: for every item that follows, state its recorded inhibition.
system.name: Serine/threonine-protein kinase MRCK alpha (Homo sapiens) (UniProt Q5VT25);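 also: each inhibition figure is a mean value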
Sequence (Q5VT25 whole entry): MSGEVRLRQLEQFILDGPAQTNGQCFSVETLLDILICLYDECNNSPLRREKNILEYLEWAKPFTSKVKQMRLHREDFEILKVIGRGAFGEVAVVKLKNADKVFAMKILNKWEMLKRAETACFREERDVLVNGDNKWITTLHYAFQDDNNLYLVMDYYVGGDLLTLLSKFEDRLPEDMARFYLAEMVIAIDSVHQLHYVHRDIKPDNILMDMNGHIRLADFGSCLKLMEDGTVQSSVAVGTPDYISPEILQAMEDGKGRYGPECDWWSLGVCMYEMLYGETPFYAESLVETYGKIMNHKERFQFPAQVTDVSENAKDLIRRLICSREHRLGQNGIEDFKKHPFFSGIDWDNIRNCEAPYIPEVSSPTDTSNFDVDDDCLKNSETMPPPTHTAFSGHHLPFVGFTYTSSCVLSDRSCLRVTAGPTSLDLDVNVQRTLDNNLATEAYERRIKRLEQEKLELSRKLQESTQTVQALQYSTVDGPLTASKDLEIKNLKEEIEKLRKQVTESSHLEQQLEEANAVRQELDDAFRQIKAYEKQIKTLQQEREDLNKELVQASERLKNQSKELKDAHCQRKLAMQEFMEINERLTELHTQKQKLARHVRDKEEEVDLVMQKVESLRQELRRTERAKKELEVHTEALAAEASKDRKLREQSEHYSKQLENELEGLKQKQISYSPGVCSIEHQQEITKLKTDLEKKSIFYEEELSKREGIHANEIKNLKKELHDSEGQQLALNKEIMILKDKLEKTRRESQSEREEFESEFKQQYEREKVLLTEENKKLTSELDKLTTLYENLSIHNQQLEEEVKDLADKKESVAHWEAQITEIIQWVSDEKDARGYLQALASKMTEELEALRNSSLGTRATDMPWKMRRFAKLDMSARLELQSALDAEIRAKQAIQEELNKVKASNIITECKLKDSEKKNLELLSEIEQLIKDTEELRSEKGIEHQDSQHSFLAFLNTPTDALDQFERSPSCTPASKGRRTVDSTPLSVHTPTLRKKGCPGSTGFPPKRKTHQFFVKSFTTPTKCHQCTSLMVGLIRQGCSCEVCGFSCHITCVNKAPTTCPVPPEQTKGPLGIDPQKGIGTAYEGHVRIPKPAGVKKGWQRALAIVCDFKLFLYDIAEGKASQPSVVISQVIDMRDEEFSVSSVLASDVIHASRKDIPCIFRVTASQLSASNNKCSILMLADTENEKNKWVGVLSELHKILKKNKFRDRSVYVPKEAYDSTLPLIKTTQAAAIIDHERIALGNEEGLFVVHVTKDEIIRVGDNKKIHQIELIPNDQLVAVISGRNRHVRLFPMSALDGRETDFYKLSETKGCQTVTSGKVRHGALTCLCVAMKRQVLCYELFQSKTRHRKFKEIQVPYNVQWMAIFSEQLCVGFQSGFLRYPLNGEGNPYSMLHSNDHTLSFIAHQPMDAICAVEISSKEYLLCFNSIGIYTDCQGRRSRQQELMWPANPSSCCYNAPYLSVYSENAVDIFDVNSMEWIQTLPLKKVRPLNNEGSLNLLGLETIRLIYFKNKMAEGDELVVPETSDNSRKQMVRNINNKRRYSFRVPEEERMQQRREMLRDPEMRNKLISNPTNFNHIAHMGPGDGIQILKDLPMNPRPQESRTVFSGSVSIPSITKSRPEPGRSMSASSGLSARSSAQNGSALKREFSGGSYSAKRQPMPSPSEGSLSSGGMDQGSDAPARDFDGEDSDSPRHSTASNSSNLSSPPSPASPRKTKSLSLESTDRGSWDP
reported.conditions: at 0.1 µM
Give bare numbers, in %.

For orientation, consider the following solved cases.
COc1cccc(-n2ncc3c(N/N=C/c4ccc(F)cc4)ncnc32)c1: -0.63
CS(=O)(=O)CCNCc1ccc(-c2ccc3ncnc(Nc4ccc(OCc5ccccc5)c(C(F)(F)F)c4)c3c2)o1: -6.32
CCCN(CCS(C)(=O)=O)Cc1ccc(-c2ccc3ncnc(Nc4ccc(OCc5cccc(F)c5)c(Cl)c4)c3c2)o1: -1.08

Working through the 2 compounds below one at a time, give inhibition for each.
1. O=S(=O)(CCNCc1ccc(-c2ccc3ncnc(Nc4ccc(OCc5cccc(F)c5)c(Cl)c4)c3c2)o1)c1ccccc1
2. NS(=O)(=O)c1ccc(Nc2ncc(-c3ccccc3)o2)cc1

[-4.06, -0.91]

###

system.name: Serine/threonine-protein kinase PAK 2 (Homo sapiens) (UniProt Q13177);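 also: reported values are mean inhibition of PAK2, averaged over measurements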
Sequence (Q13177 whole entry): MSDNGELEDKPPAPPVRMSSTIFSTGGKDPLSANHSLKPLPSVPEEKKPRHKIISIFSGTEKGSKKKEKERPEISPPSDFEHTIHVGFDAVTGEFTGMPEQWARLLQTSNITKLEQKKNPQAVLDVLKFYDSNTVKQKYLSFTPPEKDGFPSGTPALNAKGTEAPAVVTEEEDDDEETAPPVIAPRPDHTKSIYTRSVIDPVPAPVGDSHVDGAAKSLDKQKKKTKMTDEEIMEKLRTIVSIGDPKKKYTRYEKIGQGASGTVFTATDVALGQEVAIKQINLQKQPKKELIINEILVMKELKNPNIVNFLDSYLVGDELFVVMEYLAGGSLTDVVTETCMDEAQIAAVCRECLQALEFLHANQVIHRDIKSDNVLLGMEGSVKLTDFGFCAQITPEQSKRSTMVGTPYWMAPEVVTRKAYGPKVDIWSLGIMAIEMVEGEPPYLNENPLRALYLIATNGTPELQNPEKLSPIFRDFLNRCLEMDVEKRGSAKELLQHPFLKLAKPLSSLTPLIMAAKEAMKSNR
reported.conditions: at 1 µM
parameter: inhibition (%)
Answers are plain numbers, in %.

COc1cc(/C=N/Nc2ncnc3[nH]ncc23)ccc1O: 1.35
CCN(CC)S(=O)(=O)c1ccc(OC)c(Nc2ncc(-c3ccccc3)o2)c1: 0.12
CCNC(=O)O[C@H]1CN[C@H](C#Cc2cc3ncnc(Nc4ccc(OCc5cccc(F)c5)c(Cl)c4)c3s2)C1: 1.91
CN1CCC(n2cnc(-c3ccc(F)cc3)c2-c2ccnc(Nc3ccccc3)n2)CC1: -0.38

What value of measured inhibition is listed for c1cc(-c2cnn3nc(N4CCOCC4)ccc23)nc(NC2CC2)n1 ?
3.04

###

system.name: Dual specificity protein kinase CLK3 (Homo sapiens);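 also: each value is the mean inhibition of CLK3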
reported.conditions: at 1 µM
parameter: inhibition (%)
One number for each entry, in %.

COc1ccc2c(-c3ccnc(Nc4cccc(OC(F)(F)F)c4)n3)cnn2n1: 52.8
COc1cc2ncn(-c3cc(OCc4ccccc4C(F)(F)F)c(C(=O)N(C)C)s3)c2cc1OC: 0.45
COc1cc(Nc2nccc(Nc3ccc4c(C)n[nH]c4c3)n2)cc(OC)c1OC: 6.44

Your task in this section: give inhibition for each listed record.
1. O=C(O[C@H]1CN[C@H](C#Cc2cc3ncnc(Nc4ccc(Cc5ccccc5)cc4)c3s2)C1)N1CCOCC1
2. Nc1nc(-c2cccc(Cl)c2)c(-c2ccc3ncccc3n2)s1
3. COc1ccc(-c2nn3ncccc3c2-c2ccnc(Nc3ccc4c(c3)OCCO4)n2)cc1
4. N#Cc1c(NC(=O)CN2CCOCC2)sc2c1CCCC2

0.23
3.8
-0.46
7.77

Please go through the list and note inhibition for each compound.
1. Clc1ccc(-c2nn3ncccc3c2-c2ccnc(Nc3ccccc3)n2)cc1
2. NS(=O)(=O)c1ccc(Nc2ncc(-c3ccccc3)o2)cc1

[2.2, 6.65]

Look up inhibition for the entries below, preserving their order.
1. Fc1ccc(-c2nn3ccccc3c2-c2ccncc2)cc1
2. Cc1cccc(Nc2ncc(-c3ccccc3)o2)c1
3. COc1cccc(-n2ncc3c(N/N=C/c4ccc(F)cc4)ncnc32)c1
4. Fc1ccc(-c2nn3ncccc3c2-c2ccnc(Nc3ccc4c(c3)OCCO4)n2)cc1
5. Fc1cccc(COc2ccc(Nc3ncnc4sc(-c5ccco5)cc34)cc2Cl)c1
6. CCn1cc(-c2ccnc3[nH]ccc23)c(-c2cccc(NC(=O)Nc3ccc(OCc4ccccc4)cc3)c2)n1

1. 0.88
2. 0.79
3. 6.29
4. 0.91
5. 0.86
6. -1.48

Quick one: give me inhibition for each item below, same order please.
1. CC(C)COC(=O)c1ccc2c(c1)/C(=C/Nc1ccc(S(N)(=O)=O)cc1)C(=O)N2
2. NC(=O)c1sc(-n2cnc3ccc(C(F)(F)F)cc32)cc1OCc1ccccc1Br
3. Cc1ccc2c(-c3ccnc(Nc4ccccc4)n3)c(-c3ccc(F)cc3)nn2n1
4. CN1CCC(n2cnc(-c3ccc(F)cc3)c2-c2ccnc(Nc3ccccc3)n2)CC1

1: 11.4; 2: 4.85; 3: 1.61; 4: 0.59
